biological target: PIM1 (Homo sapiens, UniProt P11309); construct: made in house; host or cells: Sf9 insect cells (baculovirus); assay: 33PanQinase Activity Assay, PIM1; assay type: biochemical; settings: recombinant human protein kinase, 1 μM [γ-33P]-ATP, 30° C. 80 minutes
Sequence (P11309 whole entry): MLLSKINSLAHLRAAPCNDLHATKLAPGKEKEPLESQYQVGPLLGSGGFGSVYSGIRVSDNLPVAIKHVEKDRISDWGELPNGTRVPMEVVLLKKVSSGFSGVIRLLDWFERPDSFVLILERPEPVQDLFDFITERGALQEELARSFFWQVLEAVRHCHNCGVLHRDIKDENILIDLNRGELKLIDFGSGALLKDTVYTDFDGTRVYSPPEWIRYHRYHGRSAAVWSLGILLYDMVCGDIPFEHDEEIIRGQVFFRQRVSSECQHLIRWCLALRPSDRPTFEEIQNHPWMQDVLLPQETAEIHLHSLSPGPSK
Field: IC50. Provide a value for each of the compounds that follow.
Answers are plain numbers, in µM.

Field: example entries. Status: answers known.
Fc1ccc(-c2cc3ncnc(Sc4nnc(Cc5ccccc5)o4)c3s2)cc1	13.7
O=S1(=O)CCC(Cc2nnc(Sc3ncnc4cc(-c5ccc(F)cc5)sc34)o2)C1 (stereo not shown)	26.3
Fc1ccc(-c2cc3ncnc(Sc4nnc(-c5ccc(C(F)(F)F)cc5)o4)c3s2)cc1	8.68
COc1cccc(Cc2nnc(Sc3ncnc4cc(-c5ccc(F)cc5)sc34)o2)c1	10.4
Fc1ccc(-c2cc3ncnc(Sc4ncc[nH]4)c3s2)cc1	11.1

Record IC50 per entry; entries follow.
1. CC(C)(C)c1nnc(Sc2ncnc3cc(-c4ccc(F)cc4)sc23)o1
2. Fc1ccc(-c2cc3ncnc(Sc4ccc(C(F)(F)F)cc4)c3s2)cc1

Output line:
22.9
11.3

* * *

Target: AXL (Homo sapiens, UniProt P30530)
Sequence (P30530 26-894): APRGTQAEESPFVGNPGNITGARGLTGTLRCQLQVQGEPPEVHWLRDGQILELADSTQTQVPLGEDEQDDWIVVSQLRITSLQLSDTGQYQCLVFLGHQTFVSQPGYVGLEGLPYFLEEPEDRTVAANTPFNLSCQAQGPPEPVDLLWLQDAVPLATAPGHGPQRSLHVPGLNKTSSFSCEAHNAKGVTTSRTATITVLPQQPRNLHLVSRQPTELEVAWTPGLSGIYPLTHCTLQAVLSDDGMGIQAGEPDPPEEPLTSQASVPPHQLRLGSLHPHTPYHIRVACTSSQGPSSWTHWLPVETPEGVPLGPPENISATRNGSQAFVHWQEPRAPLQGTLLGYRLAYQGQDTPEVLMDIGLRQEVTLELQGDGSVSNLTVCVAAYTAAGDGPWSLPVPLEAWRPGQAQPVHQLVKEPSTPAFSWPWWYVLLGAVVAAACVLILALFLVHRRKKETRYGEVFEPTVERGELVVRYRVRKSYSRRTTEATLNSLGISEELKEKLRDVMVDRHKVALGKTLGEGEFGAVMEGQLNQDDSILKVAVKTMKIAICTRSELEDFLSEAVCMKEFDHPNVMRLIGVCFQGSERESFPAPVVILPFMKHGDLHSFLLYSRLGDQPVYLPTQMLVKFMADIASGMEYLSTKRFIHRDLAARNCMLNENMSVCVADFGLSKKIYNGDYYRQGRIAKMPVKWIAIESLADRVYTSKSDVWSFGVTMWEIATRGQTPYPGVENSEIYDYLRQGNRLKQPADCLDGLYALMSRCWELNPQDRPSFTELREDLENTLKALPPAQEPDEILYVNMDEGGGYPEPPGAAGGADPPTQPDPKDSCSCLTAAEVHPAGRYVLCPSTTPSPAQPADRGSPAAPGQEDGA
Assay: 33PanQinase Activity Assay, AXL
Details: recombinant human protein kinase, 1 μM [γ-33P]-ATP, 30° C. 80 minutes
MEASURED QUANTITY: pIC50
Numbers only, as −log10 of the molar value.

Field: example entries. Status: answers known.
COCCNc1nnc(Sc2ncnc3cc(-c4ccc(OC)cc4)sc23)s1	5.28
Fc1ccc(-c2cc3ncnc(Sc4nnc(CN5CCOCC5)o4)c3s2)cc1	5.12
COc1ccc(-c2cc3ncnc(Sc4nnc(-c5ccc(C(F)(F)F)cc5)o4)c3s2)cc1	5.62
Fc1ccc(-c2cc3ncnc(Sc4nnc(-c5ccc(C(F)(F)F)cc5)o4)c3s2)cc1	5.60
Cn1nnnc1Sc1ncnc2cc(-c3ccc(F)cc3)sc12	4.54
COc1ccc(-c2cc3ncnc(Sc4n[nH]/c(=N\C5CC5)s4)c3s2)cc1	5.00
Fc1ccc(-c2cc3ncnc(Sc4ncc[nH]4)c3s2)cc1	4.38
Fc1ccc(-c2cc3ncnc(Sc4nnc(-c5ccc6c(c5)OCO6)o4)c3s2)cc1	5.18
O=S1(=O)CCC(Cc2nnc(Sc3ncnc4cc(-c5ccc(F)cc5)sc34)o2)C1 (stereo not shown)	5.34
Cc1nnc(Sc2ncnc3cc(-c4ccc(Cl)cc4)sc23)s1	4.38

Record pIC50 per entry; entries follow.
1. COc1ccc(-c2cc3ncnc(Sc4nnc(-c5ccc(Cl)cc5Cl)o4)c3s2)cc1
2. CN(C)Cc1nnc(Sc2ncnc3cc(-c4ccc(F)cc4)sc23)o1
3. Fc1ccc(-c2cc3ncnc(Sc4ccc(C(F)(F)F)cc4)c3s2)cc1

Output line:
1: 5.66; 2: 4.91; 3: 5.53

* * *

Molecular target: ALK (Homo sapiens, UniProt Q9UM73)
Sequence (Q9UM73 19-1620): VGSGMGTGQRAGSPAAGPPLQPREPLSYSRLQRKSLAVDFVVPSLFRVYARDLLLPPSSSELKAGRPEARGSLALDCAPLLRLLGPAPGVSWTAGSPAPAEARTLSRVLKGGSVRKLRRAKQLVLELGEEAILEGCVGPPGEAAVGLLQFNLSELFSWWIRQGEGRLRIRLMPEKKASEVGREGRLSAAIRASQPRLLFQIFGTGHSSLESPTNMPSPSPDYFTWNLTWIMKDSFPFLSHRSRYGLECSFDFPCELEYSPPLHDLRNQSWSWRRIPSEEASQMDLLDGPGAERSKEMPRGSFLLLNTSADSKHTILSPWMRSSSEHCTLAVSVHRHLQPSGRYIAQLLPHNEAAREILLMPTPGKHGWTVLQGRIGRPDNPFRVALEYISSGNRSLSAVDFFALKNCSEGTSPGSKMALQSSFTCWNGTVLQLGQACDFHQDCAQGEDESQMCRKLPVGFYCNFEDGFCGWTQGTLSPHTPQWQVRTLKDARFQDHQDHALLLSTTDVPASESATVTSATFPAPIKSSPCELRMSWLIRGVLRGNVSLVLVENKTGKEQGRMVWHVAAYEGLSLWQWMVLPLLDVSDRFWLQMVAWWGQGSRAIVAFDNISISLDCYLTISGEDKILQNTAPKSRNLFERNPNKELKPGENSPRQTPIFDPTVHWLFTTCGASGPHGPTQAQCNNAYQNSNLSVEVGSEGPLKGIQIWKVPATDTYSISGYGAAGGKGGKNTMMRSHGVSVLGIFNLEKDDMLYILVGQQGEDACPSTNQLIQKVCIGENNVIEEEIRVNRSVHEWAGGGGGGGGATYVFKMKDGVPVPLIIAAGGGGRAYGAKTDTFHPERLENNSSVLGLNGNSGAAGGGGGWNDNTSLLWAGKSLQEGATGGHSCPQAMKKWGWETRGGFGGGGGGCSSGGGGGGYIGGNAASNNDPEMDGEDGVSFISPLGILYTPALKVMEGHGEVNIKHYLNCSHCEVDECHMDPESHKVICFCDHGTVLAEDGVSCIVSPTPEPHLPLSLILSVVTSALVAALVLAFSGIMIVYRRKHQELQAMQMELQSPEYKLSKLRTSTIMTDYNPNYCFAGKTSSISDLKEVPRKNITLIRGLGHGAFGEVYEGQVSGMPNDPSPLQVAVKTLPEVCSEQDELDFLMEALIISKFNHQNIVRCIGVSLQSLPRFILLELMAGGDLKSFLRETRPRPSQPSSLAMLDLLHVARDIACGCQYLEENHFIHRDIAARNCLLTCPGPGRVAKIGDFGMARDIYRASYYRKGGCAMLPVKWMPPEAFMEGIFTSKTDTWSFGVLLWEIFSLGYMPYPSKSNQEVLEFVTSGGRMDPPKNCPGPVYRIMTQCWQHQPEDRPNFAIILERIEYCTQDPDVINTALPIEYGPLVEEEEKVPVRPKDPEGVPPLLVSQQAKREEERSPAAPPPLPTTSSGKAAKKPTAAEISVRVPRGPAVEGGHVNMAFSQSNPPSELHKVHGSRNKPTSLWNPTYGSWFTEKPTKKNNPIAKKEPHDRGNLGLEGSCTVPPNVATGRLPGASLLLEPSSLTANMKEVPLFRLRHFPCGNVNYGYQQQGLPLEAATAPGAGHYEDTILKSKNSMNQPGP
Assay: 33PanQinase Activity Assay, ALK
Conditions: recombinant human protein kinase, 1 μM [γ-33P]-ATP, 30° C. 80 minutes
Method: The effect of the thioether derivatives 8a-v and 9a-i was tested on recombinant, human protein kinases. All protein kinases were expressed in Sf9 insect cells as human recombinant GST-fusion proteins or as His-tagged proteins by means of the baculovirus expression system. […] The reaction cocktails were incubated at 30° C. for 80 minutes. […] Incorporation of ^33Pi was determined with a microplate scintillation counter. […]
MEASURED QUANTITY: log10 of IC50 (log10 of the value in nM)
Values are log10 of IC50 in nM.

Field: example entries. Status: answers known.
COc1ccc(-c2cc3ncnc(Sc4nnnn4C4CC4)c3s2)cc1 [Compound 9e]	3.44
COc1ccc(-c2cc3ncnc(Sc4nnnn4C)c3s2)cc1 [Compound 9g]	3.37
Fc1ccc(-c2cc3ncnc(Sc4nnc(Cc5ccccc5)o4)c3s2)cc1 [Compound 8l]	3.06

Record log10 of IC50 per entry; entries follow.
1. COc1cccc(Cc2nnc(Sc3ncnc4cc(-c5ccc(F)cc5)sc34)o2)c1 [Compound 8f]
2. Fc1ccc(-c2cc3ncnc(Sc4ccccn4)c3s2)cc1 [Compound 8j]
3. O=C1CCCCCN1Cc1nnc(Sc2ncnc3cc(-c4ccc(Cl)cc4)sc23)o1 [Compound 9a]
4. COc1ccc(-c2cc3ncnc(Sc4nnc(-c5ccc(Cl)cc5Cl)o4)c3s2)cc1 [Compound 8q]
5. c1ccc(Cc2nnc(Sc3ncnc4[nH]c(-c5ccccc5)nc34)o2)cc1 [Compound 8t]

Output line:
[2.81, 3.82, 3.33, 3.11, 4.88]

Input line: Which value of log10 of IC50 has been reported for Fc1ccc(-c2cc3ncnc(Sc4nnc(CN5CCCC5)o4)c3s2)cc1 [Compound 9b] in the records?
Output line: 3.48

* * *

biological target: PRK1 (Homo sapiens); test: 33PanQinase Activity Assay, PRK1; conditions: recombinant human protein kinase, 1 μM [γ-33P]-ATP, 30° C. 80 minutes
Sequence (Q16512 whole entry): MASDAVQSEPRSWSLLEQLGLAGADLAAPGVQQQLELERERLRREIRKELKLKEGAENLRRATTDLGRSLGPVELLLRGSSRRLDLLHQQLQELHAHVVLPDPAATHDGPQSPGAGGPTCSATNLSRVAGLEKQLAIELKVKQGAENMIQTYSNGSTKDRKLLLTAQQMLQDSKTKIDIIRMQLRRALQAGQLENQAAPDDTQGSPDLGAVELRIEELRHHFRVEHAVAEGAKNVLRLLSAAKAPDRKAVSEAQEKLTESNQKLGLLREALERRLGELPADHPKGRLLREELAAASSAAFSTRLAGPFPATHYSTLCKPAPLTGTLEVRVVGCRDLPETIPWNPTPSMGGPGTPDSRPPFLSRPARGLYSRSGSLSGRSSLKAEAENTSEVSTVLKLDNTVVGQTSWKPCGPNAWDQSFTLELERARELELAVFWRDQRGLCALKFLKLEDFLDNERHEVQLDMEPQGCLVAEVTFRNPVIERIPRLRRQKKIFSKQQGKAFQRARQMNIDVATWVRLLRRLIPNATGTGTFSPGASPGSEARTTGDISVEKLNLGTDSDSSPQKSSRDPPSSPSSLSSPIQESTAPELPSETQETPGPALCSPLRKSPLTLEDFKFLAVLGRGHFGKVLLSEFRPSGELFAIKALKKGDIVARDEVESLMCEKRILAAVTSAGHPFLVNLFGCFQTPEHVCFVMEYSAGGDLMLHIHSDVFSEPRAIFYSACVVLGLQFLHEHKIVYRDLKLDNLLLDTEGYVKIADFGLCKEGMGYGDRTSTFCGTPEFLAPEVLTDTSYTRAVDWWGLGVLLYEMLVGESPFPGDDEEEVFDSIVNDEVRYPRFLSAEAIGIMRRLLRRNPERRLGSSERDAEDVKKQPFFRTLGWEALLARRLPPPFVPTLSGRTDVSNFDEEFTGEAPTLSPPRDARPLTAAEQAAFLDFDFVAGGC
MEASURED QUANTITY: IC50 (µM)
Answers are plain numbers, in µM.

Field: example entries. Status: answers known.
Fc1ccc(-c2cc3ncnc(Sc4ccccn4)c3s2)cc1	47.3
COc1cccc(Cc2nnc(Sc3ncnc4cc(-c5ccc(F)cc5)sc34)o2)c1	14.6
Fc1ccc(-c2cc3ncnc(Sc4nnc(Cc5ccccc5)o4)c3s2)cc1	38
Fc1ccc(-c2cc3ncnc(Sc4ccc(C(F)(F)F)cc4)c3s2)cc1	33.9

Record IC50 per entry; entries follow.
1. Fc1ccc(-c2cc3ncnc(Sc4ncc[nH]4)c3s2)cc1
2. Fc1ccc(-c2cc3ncnc(Sc4nnc(-c5ccc(C(F)(F)F)cc5)o4)c3s2)cc1

Output line:
1. 86.1
2. 15.4

* * *

Field: melting point. Provide a value for each of the compounds that follow.

Field: example entries. Status: answers known.
Fc1ccc(-c2cc3ncnc(Sc4nnc(-c5ccncc5)o4)c3s2)cc1	232 °C
c1ccc(-c2nc3c(Sc4nnc(-c5ccco5)o4)ncnc3[nH]2)cc1	224 to 225 °C
Fc1ccc(-c2cc3ncnc(Sc4ncc[nH]4)c3s2)cc1	204 to 206 °C

Record melting point per entry; entries follow.
1. COc1ccc(-c2cc3ncnc(Sc4nnc(-c5ccccc5)o4)c3s2)cc1
2. COc1ccc(-c2cc3ncnc(Sc4nnc(-c5ccccc5C)o4)c3s2)cc1
3. COc1cccc(Cc2nnc(Sc3ncnc4cc(-c5ccc(F)cc5)sc34)o2)c1

Output line:
1: 213 to 215 °C; 2: 184 to 186 °C; 3: 166 to 168 °C

Record melting point per entry; entries follow.
1. Fc1ccc(-c2cc3ncnc(Sc4ccccn4)c3s2)cc1
2. COc1ccc(-c2cc3ncnc(Sc4nnc(-c5ccc(C(F)(F)F)cc5)o4)c3s2)cc1
3. CN(C)Cc1nnc(Sc2ncnc3cc(-c4ccc(F)cc4)sc23)o1

Output line:
1. 172 to 174 °C
2. 227 to 228 °C
3. 170 to 172 °C

* * *

Field: pIC50. Provide a value for each of the compounds that follow.
biological target: KIT wt (Homo sapiens); construct: made in house; host or cells: Sf9 insect cells (baculovirus); experiment: 33PanQinase Activity Assay, KIT wt; type: biochemical; conditions: recombinant human protein kinase, 1 μM [γ-33P]-ATP, 30° C. 80 minutes
Sequence (P10721 26-976): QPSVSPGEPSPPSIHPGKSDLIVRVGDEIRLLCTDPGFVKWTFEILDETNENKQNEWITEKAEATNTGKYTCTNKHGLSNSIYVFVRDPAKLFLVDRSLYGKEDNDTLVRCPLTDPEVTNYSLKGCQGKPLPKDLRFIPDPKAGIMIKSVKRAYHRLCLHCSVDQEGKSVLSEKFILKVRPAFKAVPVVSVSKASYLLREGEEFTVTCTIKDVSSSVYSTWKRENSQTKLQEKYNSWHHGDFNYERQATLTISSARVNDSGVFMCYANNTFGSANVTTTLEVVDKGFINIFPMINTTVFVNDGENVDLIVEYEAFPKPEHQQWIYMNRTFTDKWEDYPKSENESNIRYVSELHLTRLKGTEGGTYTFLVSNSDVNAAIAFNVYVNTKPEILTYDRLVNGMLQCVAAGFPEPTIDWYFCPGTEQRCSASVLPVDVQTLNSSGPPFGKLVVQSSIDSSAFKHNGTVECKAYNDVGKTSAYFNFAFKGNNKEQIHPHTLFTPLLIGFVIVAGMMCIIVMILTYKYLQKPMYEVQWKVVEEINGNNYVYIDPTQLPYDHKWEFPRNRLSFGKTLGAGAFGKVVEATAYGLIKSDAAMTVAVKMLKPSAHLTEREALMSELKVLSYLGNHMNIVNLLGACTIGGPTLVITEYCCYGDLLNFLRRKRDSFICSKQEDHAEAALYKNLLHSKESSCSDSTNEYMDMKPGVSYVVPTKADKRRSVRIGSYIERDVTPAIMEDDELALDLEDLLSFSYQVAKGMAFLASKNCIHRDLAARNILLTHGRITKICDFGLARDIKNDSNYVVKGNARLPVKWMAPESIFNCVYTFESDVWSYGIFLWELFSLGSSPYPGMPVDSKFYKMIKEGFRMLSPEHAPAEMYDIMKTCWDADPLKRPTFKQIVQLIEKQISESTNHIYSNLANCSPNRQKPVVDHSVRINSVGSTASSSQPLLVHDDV
Numbers only, as −log10 of the molar value.

Field: example entries. Status: answers known.
COCCNc1nnc(Sc2ncnc3cc(-c4ccc(OC)cc4)sc23)s1	6.09
Fc1ccc(-c2cc3ncnc(Sc4nnc(-c5ccccc5)o4)c3s2)cc1	5.98
O=C1CCCCCN1Cc1nnc(Sc2ncnc3cc(-c4ccc(Cl)cc4)sc23)o1	6.22
Cc1nnc(Sc2ncnc3cc(-c4ccc(Cl)cc4)sc23)s1	5.90
Cn1nnnc1Sc1ncnc2cc(-c3ccc(F)cc3)sc12	5.62

Record pIC50 per entry; entries follow.
1. Fc1ccc(-c2cc3ncnc(Sc4nnc(-c5ccncc5)o4)c3s2)cc1
2. COc1ccc(-c2cc3ncnc(Sc4n[nH]/c(=N\C5CC5)s4)c3s2)cc1
3. CN(C)Cc1nnc(Sc2ncnc3cc(-c4ccc(F)cc4)sc23)o1
4. Fc1ccc(-c2cc3ncnc(Sc4nnc(CN5CCCC5)o4)c3s2)cc1
5. COc1ccc(-c2cc3ncnc(Sc4nnnn4C)c3s2)cc1

Output line:
[5.76, 6.06, 5.56, 5.19, 5.99]

Record pIC50 per entry; entries follow.
1. COc1ccc(-c2cc3ncnc(Sc4nnnn4C4CC4)c3s2)cc1
2. Fc1ccc(-c2cc3ncnc(Sc4nnc(-c5ccc6c(c5)OCO6)o4)c3s2)cc1
3. Fc1ccc(-c2cc3ncnc(Sc4nnc(CN5CCOCC5)o4)c3s2)cc1

Output line:
[5.89, 5.31, 5.41]

Values from patent US9925193B2
